# reported pIC50; entries follow
experimental_target: Human immunodeficiency virus type 1 reverse transcriptase (Human immunodeficiency virus 1, UniProt Q72547)
method_summary: Inhibition of recombinant HIV1 reverse transcriptase RNase H expressed in Escherichia coli JM109 using RNA/DNA duplex substrate HTS1 as substrate
Keep in mind that pIC50 stands for -log10 of concentration in molar terms.

Use these answered entries as a reference point.
Asked: Which pIC50 reading was recorded for the compound CCOCn1c(Cc2ccc(-c3ccc(Cl)c(F)c3)cc2)cc(=O)n(O)c1=O ?
Given back: 6.37

Asked: Which pIC50 reading was recorded for the compound CC(C)c1c(Cc2ccc(F)cc2)n(Cc2ccc(F)cc2)c(=O)n(O)c1=O ?
Given back: 4.89

Asked: Which pIC50 reading was recorded for the compound O=c1cc(Cc2ccc(-c3ccccc3)cc2)[nH]c(=O)n1O ?
Given back: 7.80

Asked: Which pIC50 reading was recorded for the compound COc1ccc(-c2ccc(Cc3cc(=O)n(O)c(=O)[nH]3)cc2)cc1F ?
Given back: 8.12

Asked: Which pIC50 reading was recorded for the compound O=c1cc(Cc2ccc(-c3ccc(F)cc3F)cc2)[nH]c(=O)n1O ?
Given back: 7.82

Asked: Which pIC50 reading was recorded for the compound O=c1cc(Cc2ccc(-c3ccc(C(F)(F)F)cc3)cc2)[nH]c(=O)n1O ?
Given back: 7.33

***
Asked: Which pIC50 reading was recorded for the compound COn1c(=O)c(C(C)C)c(Cc2ccccc2)n(COCc2ccc(F)cc2)c1=O ?
Given back: 4.96

Asked: Which pIC50 reading was recorded for the compound CC(C)c1c(Cc2ccccc2)n(COCc2ccccc2)c(=O)n(O)c1=O ?
Given back: 5.60

Asked: Which pIC50 reading was recorded for the compound CC(C)c1c(Cc2ccccc2)n(Cc2ccccc2)c(=O)n(O)c1=O ?
Given back: 4.82

Asked: Which pIC50 reading was recorded for the compound CCc1c(Cc2ccccc2)c(=O)n(O)c(=O)n1COCc1ccc(F)cc1 ?
Given back: 4.82

Asked: Which pIC50 reading was recorded for the compound O=c1cc(Cc2ccc(-c3cccc(F)c3)cc2)[nH]c(=O)n1O ?
Given back: 7.55

Asked: Which pIC50 reading was recorded for the compound CCOCn1c(Cc2ccc(-c3ccc(C#N)cc3)cc2)c(C)c(=O)n(O)c1=O ?
Given back: 5.28

Asked: Which pIC50 reading was recorded for the compound O=c1cc(Cc2ccc(-c3ccc(Cl)c(F)c3)cc2)[nH]c(=O)n1O ?
Given back: 8.03

Asked: Which pIC50 reading was recorded for the compound O=c1cc(Cc2cccc(-c3ccc(Cl)cc3)c2)[nH]c(=O)n1O ?
Given back: 7.92

Asked: Which pIC50 reading was recorded for the compound O=c1cc(Cc2cccc(-c3cccc(C(F)(F)F)c3)c2)[nH]c(=O)n1O ?
Given back: 7.43

Asked: Which pIC50 reading was recorded for the compound O=c1cc(Cc2ccc(Br)cc2)[nH]c(=O)n1O ?
Given back: 7.96

Asked: Which pIC50 reading was recorded for the compound CCc1c(-c2ccc(F)cc2)n(COCc2ccc(F)cc2)c(=O)n(O)c1=O ?
Given back: 4.77

Asked: Which pIC50 reading was recorded for the compound Cc1cc(-c2cccc(Cc3cc(=O)n(O)c(=O)[nH]3)c2)ccc1F ?
Given back: 8.06

----------
method_summary: Cytotoxicity against human P4R5 cells assessed as reduction in cell viability after 72 hrs by XTT assay
Format: cell-based
endpoint_name: CC50 (µM)
Expressed in µM, but write only the number.

Asked: Which CC50 reading was recorded for the molecule O=c1cc(Cc2cccc(-c3ccc(Cl)cc3)c2)[nH]c(=O)n1O ?
Given back: 27

Asked: Which CC50 reading was recorded for the molecule O=c1cc(Cc2ccc(-c3ccc(F)cc3F)cc2)[nH]c(=O)n1O ?
Given back: 11

Asked: Which CC50 reading was recorded for the molecule O=c1cc(Cc2cccc(-c3cccc(F)c3)c2)[nH]c(=O)n1O ?
Given back: 14

Asked: Which CC50 reading was recorded for the molecule COc1ccc(-c2cccc(Cc3cc(=O)n(O)c(=O)[nH]3)c2)cc1F ?
Given back: 20

Asked: Which CC50 reading was recorded for the molecule O=c1cc(Cc2cccc(-c3ccccc3)c2)[nH]c(=O)n1O ?
Given back: 16

Asked: Which CC50 reading was recorded for the molecule O=c1cc(Cc2ccc(-c3ccc(Cl)c(F)c3)cc2)[nH]c(=O)n1O ?
Given back: 59
